- Species on record: Rattus norvegicus
- Assay Procedure: DrugMatrix - Regimen: Daily Repeat
- Format: toxicity, organism-based, Sprague-Dawley
- Design: regimen Daily Repeat, gender Male, age 6-8 weeks
- Test Context: in vivo, iv, 0 mg/kg, 120 h, tissue Blood, dose level Control, time 5 day, vehicle 100 % SALINE
The molecules listed here are annotated with their HEMATOCRIT.
Quantity: HEMATOCRIT

- Molecule: "C[N+](C)(C)CCOC(=O)CCC(=O)OCC[N+](C)(C)C.[Cl-].[Cl-] [SUCCINYLCHOLINE CHLORIDE]"
  Quantity: "HEMATOCRIT"
  Result Value: "37.42%"
- Molecule: "O=C(O)P(=O)(O)O"
  Quantity: "HEMATOCRIT"
  Result Value: "36.85%"
- Molecule: "COc1cccc2c1C(=O)c1c(O)c3c(c(O)c1C2=O)C[C@@](O)(C(C)=O)C[C@@H]3O[C@H]1C[C@H](N)[C@H](O)[C@H](C)O1"
  Quantity: "HEMATOCRIT"
  Result Value: "37.42%"
- Molecule: "O=c1[nH]c(=O)n([C@H]2C[C@H](O)[C@@H](CO)O2)cc1F"
  Quantity: "HEMATOCRIT"
  Result Value: "34.3%"
- Molecule: "N=C(N)c1ccc(OCCCCCOc2ccc(C(=N)N)cc2)cc1"
  Quantity: "HEMATOCRIT"
  Result Value: "37.42%"

---

- Organism: Rattus norvegicus
- Assay Procedure: DrugMatrix - Regimen: Daily Repeat
- Assay type: toxicity, organism-based, Sprague-Dawley
- Set-up: regimen Daily Repeat, gender Male, age 6-8 weeks
- Test Context: in vivo, po, 0 mg/kg, 72 h, tissue Blood, route oral GAVAGE, dose level Control, time 3 day, […]
The molecules listed here are annotated with their ABSOLUTE MONOCYTE.

- Molecule: "CC(C)c1c(C(=O)Nc2ccccc2)c(-c2ccccc2)c(-c2ccc(F)cc2)n1CC[C@@H](O)C[C@@H](O)CC(=O)O [ATORVASTATIN]"
  ABSOLUTE MONOCYTE (CELLS/uL): 22.5
- Molecule: "CC(=O)Oc1ccccc1C(=O)O [ASPIRIN]"
  ABSOLUTE MONOCYTE (CELLS/uL): 40.67
- Molecule: "ClC(Cl)(Cl)Cl [CARBON TETRACHLORIDE]"
  ABSOLUTE MONOCYTE (CELLS/uL): 195.5
- Molecule: "O=c1c(-c2ccc(O)cc2)coc2cc(O)cc(O)c12 [GENISTEIN]"
  ABSOLUTE MONOCYTE (CELLS/uL): 22.5
- Molecule: "CS(=O)(=O)Nc1ccc([N+](=O)[O-])cc1Oc1ccccc1 [NIMESULIDE]"
  ABSOLUTE MONOCYTE (CELLS/uL): 354.33
- Molecule: "CCCCC(=O)N(Cc1ccc(-c2ccccc2-c2nnn[nH]2)cc1)[C@H](C(=O)O)C(C)C"
  ABSOLUTE MONOCYTE (CELLS/uL): 50
- Molecule: "CCc1ccc(CCOc2ccc(CC3SC(=O)NC3=O)cc2)nc1 (stereo not drawn) [PIOGLITAZONE]"
  ABSOLUTE MONOCYTE (CELLS/uL): 169.83
- Molecule: "Cc1ccc(C)c(OCCCC(C)(C)C(=O)O)c1 [GEMFIBROZIL]"
  ABSOLUTE MONOCYTE (CELLS/uL): 122.17
